# Experiment notes: Plasma pharmacokinetics of alisertib, non-compartmental analysis
# Format: in vivo, human
# Test parameters: human; alisertib oral at RP2D with gemcitabine, cycle 1 day 8; plasma; N 5; read-out: AUC0->last, Mean (converted)
Recorded metric: AUC(0-t) (ng·h/mL)
Give bare numbers, in ng·h/mL.

If you can, please state the reported AUC(0-t) value of COc1cc(Nc2ncc3c(n2)-c2ccc(Cl)cc2C(c2c(F)cccc2OC)=NC3)ccc1C(=O)O [alisertib] .
11800

====

# Experiment notes: Plasma pharmacokinetics of gemcitabine and dFdU without and with alisertib, non-compartmental analysis
# Format: in vivo, human
# Test parameters: human, plasma, iv, 1000 mg/m2, Day 8 (with alisertib); plasma; gemcitabine 1000 mg/m^2 IV; N 4
Recorded metric: Cmax (ng/mL)
Numbers only, in ng/mL.

{"Compound": "Nc1ccn([C@@H]2O[C@H](CO)[C@@H](O)C2(F)F)c(=O)n1 [gemcitabine]", "Uom": "ng/mL", "Cmax": 6240}

Continue with the compound presented below.
If you can, please state the reported Cmax value of O=c1ccn([C@@H]2O[C@H](CO)[C@@H](O)C2(F)F)c(=O)[nH]1 [dFdU, 2′, 2′-difluorodeoxyuridine] .
73800

====

# Experiment notes: Plasma pharmacokinetics of alisertib, non-compartmental analysis
# Type: in vivo, human
# Test parameters: human, plasma, oral; observed here with gemcitabine, similar to previously reported; read-out: Cmax
Recorded metric: Cmax

If you can, please state the reported Cmax value of COc1cc(Nc2ncc3c(n2)-c2ccc(Cl)cc2C(c2c(F)cccc2OC)=NC3)ccc1C(=O)O .
700 to 900 ng/mL

====

# Experiment notes: Plasma pharmacokinetics of alisertib, non-compartmental analysis
# Assay type: in vivo, human
# Test parameters: human; alisertib oral at RP2D with gemcitabine, cycle 1 day 8; plasma; N 4; read-out: AUC0->inf, Mean (converted)
Recorded metric: AUC(0-inf)

If you can, please state the reported AUC(0-inf) value of COc1cc(Nc2ncc3c(n2)-c2ccc(Cl)cc2C(c2c(F)cccc2OC)=NC3)ccc1C(=O)O .
16300 ng·h/mL

====

# Experiment notes: Plasma pharmacokinetics of alisertib, non-compartmental analysis
# Type: in vivo, human
# Test parameters: human; alisertib oral at RP2D with gemcitabine, cycle 1 day 8; plasma; N 5; read-out: Cmax, Mean
Recorded metric: Cmax

If you can, please state the reported Cmax value of COc1cc(Nc2ncc3c(n2)-c2ccc(Cl)cc2C(c2c(F)cccc2OC)=NC3)ccc1C(=O)O .
973 ng/mL

====

Answer each item with its documented AUC(0-t).
# Experiment notes: Plasma pharmacokinetics of gemcitabine and dFdU without and with alisertib, non-compartmental analysis
# Type: in vivo, human
# Test parameters: human, plasma, iv, 1000 mg/m2, Day 8 (with alisertib); plasma; gemcitabine 1000 mg/m^2 IV; N 4; read-out: AUC0->last, Mean (converted)
One number for each entry, in µg·h/mL.

{"Structure string": "Nc1ccn([C@@H]2O[C@H](CO)[C@@H](O)C2(F)F)c(=O)n1", "Uom": "µg·h/mL", "Value measured": 3.23}

Continue with the compound presented below.
If you can, please state the reported AUC(0-t) value of O=c1ccn([C@@H]2O[C@H](CO)[C@@H](O)C2(F)F)c(=O)[nH]1 .
343

====

# Experiment notes: Plasma pharmacokinetics of alisertib, non-compartmental analysis
# Format: in vivo, human
# Test parameters: human, plasma, oral, Subject 24, day 8; unexpectedly long; read-out: Tmax
Recorded metric: Tmax (h)
Answers are plain numbers, in h.

If you can, please state the reported Tmax value of COc1cc(Nc2ncc3c(n2)-c2ccc(Cl)cc2C(c2c(F)cccc2OC)=NC3)ccc1C(=O)O .
24

====

# Experiment notes: Plasma pharmacokinetics of gemcitabine and dFdU without and with alisertib, non-compartmental analysis
# Format: in vivo, human
# Test parameters: human, plasma, iv, 1000 mg/m2, Day 1 (without alisertib); plasma; gemcitabine 1000 mg/m^2 IV; N 5; read-out: AUC0->inf, Mean (converted)
Answer each item with its documented AUC(0-inf).
One number for each entry, in µg·h/mL.

{"Compound": "Nc1ccn([C@@H]2O[C@H](CO)[C@@H](O)C2(F)F)c(=O)n1 [gemcitabine]", "Recorded metric": "AUC(0-inf)", "Value measured": 3.6}

Continue with the compound presented below.
If you can, please state the reported AUC(0-inf) value of O=c1ccn([C@@H]2O[C@H](CO)[C@@H](O)C2(F)F)c(=O)[nH]1 [dFdU, 2′, 2′-difluorodeoxyuridine] .
412

====

# Experiment notes: Plasma pharmacokinetics of gemcitabine and dFdU without and with alisertib, non-compartmental analysis
# Type: in vivo, human
# Test parameters: human, plasma, iv, 1000 mg/m2, Day 1 (without alisertib); plasma; gemcitabine 1000 mg/m^2 IV; N 5; read-out: AUC0->last, Mean (converted)
Answer each item with its documented AUC(0-t).
One number for each entry, in µg·h/mL.

{"Compound": "Nc1ccn([C@@H]2O[C@H](CO)[C@@H](O)C2(F)F)c(=O)n1 [gemcitabine]", "AUC(0-t) [µg·h/mL]": 3.6}

Continue with the compound presented below.
If you can, please state the reported AUC(0-t) value of O=c1ccn([C@@H]2O[C@H](CO)[C@@H](O)C2(F)F)c(=O)[nH]1 [dFdU, 2′, 2′-difluorodeoxyuridine] .
363

====

# Experiment notes: Plasma pharmacokinetics of alisertib, non-compartmental analysis
# Format: in vivo, human
# Test parameters: human, plasma, po, alisertib oral at RP2D with gemcitabine, cycle 1 day 8; plasma; N 5; read-out: Tmax, Mean (converted)
# Method: Pharmacokinetic sampling was performed on the expanded cohort of subjects with pancreatic cancer treated at the RP2D. […] Both the parent drug (gemcitabine, dFdC) and the metabolite (dFdU) were measured to evaluate changes in gemcitabine metabolism related to alisertib administration. […] Actual timepoints were recorded for PK parameter evaluation. […]
Recorded metric: Tmax (h)
Answers are plain numbers, in h.

If you can, please state the reported Tmax value of COc1cc(Nc2ncc3c(n2)-c2ccc(Cl)cc2C(c2c(F)cccc2OC)=NC3)ccc1C(=O)O [alisertib] .
7.52
